# ASSAYED_TARGET: His6-PDK1(Δ1-50) (Homo sapiens)
# Construct: His6 (N)
# ASSAY_METHOD_TEXT: Inhibition of PDK1 (IC50), 384-well flashplate kinase assay
# Type: biochemical
# EXPERIMENTAL_SETUP: 4 μM ATP, 400 nM PDKtide, second part of Table 1 (compounds 32-124)
OBSERVABLE: IC50 (nM)
Give the value in nM but do not write nM after it.

Example entries and their recorded answers appear below.
>>> measured("CC(C)N1CCC(Nc2ncc3c(n2)Nc2ccc(C(F)(F)F)cc2NC3=O)CC1")
6500
>>> measured("CN1CCC(N(C)c2ncc3c(n2)Nc2c(NC(=O)NC4CCCCC4)cccc2NC3=O)CC1")
3500
>>> measured("CCN(c1ncc2c(n1)Nc1ccc(F)cc1NC2=O)C1CCN(C)CC1")
2400

What does the record list as IC50 for Cc1noc(C)c1NC(=O)Nc1cccc2c1Nc1nc(N(C)C3CCN(C)CC3)ncc1C(=O)N2 ?
3400

Reported IC50 for CCCNC(=O)Nc1ccc2c(c1)NC(=O)c1cnc(N(C)C3CCN(C)CC3)nc1N2 : what is it?
280

GET /values?readout=IC50&item= CCN(c1ncc2c(n1)Nc1ccc(C(C)C)cc1NC2=O)C1CCN(C)CC1
3000

----------
# key: entry, value: pIC50
# ASSAYED_TARGET: His6-PDK1(Δ1-50) (Homo sapiens, UniProt O15530)
# Construct: His6 (N)
# ASSAY_METHOD_TEXT: Inhibition of PDK1 (IC50), 384-well flashplate kinase assay
# Type: biochemical
# EXPERIMENTAL_SETUP: 4 μM ATP, 400 nM PDKtide, first part of Table 1 (compounds 1-31)
Remember the convention: pIC50 equals -log10 of concentration in molar.

The following compounds have reported results that may help.
>>> measured("COc1ccc2c(c1)NC(=O)c1cnc(NC3CCN(C)CC3)nc1N2")
5.51
>>> measured("Cc1ccc2c(c1)NC(=O)c1cnc(NC3CCN(C)CC3)nc1N2 [Compound 12]")
6.05

Requested read-out: pIC50. Entry: CCOc1ccc2c(c1)NC(=O)c1cnc(N(C)C3CCN(C)CC3)nc1N2
6.05

# query: pIC50 of entry Cc1cc2c(cc1C)Nc1nc(NC3CCN(C)CC3)ncc1C(=O)N2
5.60

Would you kindly share the measured pIC50 for CCN(c1ncc2c(n1)Nc1ccc(C)cc1NC2=O)C1CCN(C)CC1 ?
5.55

----------
Each record here notes measured IC50.
# ASSAYED_TARGET: His6-PDK1(Δ1-50) (Homo sapiens, UniProt O15530)
# Construct: His6 (N)
# Sequence (O15530 51-556): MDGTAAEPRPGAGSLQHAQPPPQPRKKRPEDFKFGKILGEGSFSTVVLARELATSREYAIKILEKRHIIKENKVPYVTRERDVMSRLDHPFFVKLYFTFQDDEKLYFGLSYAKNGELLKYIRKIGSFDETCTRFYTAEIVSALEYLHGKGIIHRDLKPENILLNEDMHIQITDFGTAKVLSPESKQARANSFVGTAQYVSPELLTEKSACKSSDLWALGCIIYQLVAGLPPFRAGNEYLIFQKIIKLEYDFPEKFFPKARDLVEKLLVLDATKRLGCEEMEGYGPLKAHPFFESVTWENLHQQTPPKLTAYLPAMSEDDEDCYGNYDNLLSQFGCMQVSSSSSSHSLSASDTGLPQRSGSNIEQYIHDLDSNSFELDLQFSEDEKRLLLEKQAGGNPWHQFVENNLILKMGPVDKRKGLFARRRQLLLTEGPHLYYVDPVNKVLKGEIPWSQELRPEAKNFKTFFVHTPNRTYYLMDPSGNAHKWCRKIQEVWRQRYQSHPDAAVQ
# ASSAY_METHOD_TEXT: Inhibition of PDK1 (IC50), 384-well flashplate kinase assay
# Assay type: biochemical
# EXPERIMENTAL_SETUP: 4 μM ATP, 400 nM PDKtide, second part of Table 1 (compounds 32-124)
Entry rule: numbers only, all in µM.

Worked examples follow.
>>> measured("Cc1cccc2c1Nc1nc(NC3CCN(C)CC3)ncc1C(=O)N2")
2.4
>>> measured("CN1CCC(N(C)c2ncc3c(n2)Nc2cc(NC(=O)NC4CCCCC4)ccc2NC3=O)CC1")
0.75
>>> measured("Cc1cc(C)c2c(c1)NC(=O)c1cnc(N(C)C3CCN(C)CC3)nc1N2")
1.3

IC50 lookup needed for CN1CCC(N(C)c2ncc3c(n2)Nc2ccc(C(F)(F)F)cc2NC3=O)CC1 , thanks.
1.3

Would you mind telling me what IC50 value was observed for CN1CCC(Nc2ncc3c(n2)Nc2ccc(C#N)cc2NC3=O)CC1 ?
1.5

Look up IC50 for this compound: Cc1noc(C)c1NC(=O)Nc1ccc2c(c1)NC(=O)c1cnc(N(C)C3CCN(C)CC3)nc1N2
0.22

# lookup: IC50 of CCN1CCC(Nc2ncc3c(n2)Nc2ccc(C)cc2NC3=O)CC1
1.5

// returns reported IC50 for input CC(C)NC(=O)Nc1cccc2c1Nc1nc(N(C)C3CCN(C)CC3)ncc1C(=O)N2
6

----------
# ASSAYED_TARGET: His6-PDK1(Δ1-50) (Homo sapiens, UniProt O15530)
# Construct: His6 (N)
# Sequence (O15530 51-556): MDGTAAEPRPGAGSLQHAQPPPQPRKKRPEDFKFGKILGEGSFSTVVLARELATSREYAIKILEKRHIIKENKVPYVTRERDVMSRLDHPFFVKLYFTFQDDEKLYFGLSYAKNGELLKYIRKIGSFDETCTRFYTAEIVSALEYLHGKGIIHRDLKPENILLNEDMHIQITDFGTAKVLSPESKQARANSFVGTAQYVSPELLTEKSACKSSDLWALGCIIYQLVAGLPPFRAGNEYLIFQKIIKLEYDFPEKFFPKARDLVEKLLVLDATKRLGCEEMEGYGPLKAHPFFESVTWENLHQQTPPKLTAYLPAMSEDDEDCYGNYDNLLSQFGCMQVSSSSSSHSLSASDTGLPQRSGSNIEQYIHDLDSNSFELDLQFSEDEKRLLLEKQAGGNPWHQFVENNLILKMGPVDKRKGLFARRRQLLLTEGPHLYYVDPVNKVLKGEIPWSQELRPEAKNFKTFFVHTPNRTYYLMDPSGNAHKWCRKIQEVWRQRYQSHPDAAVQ
# ASSAY_METHOD_TEXT: Inhibition of PDK1 (IC50), 384-well flashplate kinase assay
# Format: biochemical
# EXPERIMENTAL_SETUP: 4 μM ATP, 400 nM PDKtide, second part of Table 1 (compounds 32-124)
OBSERVABLE: pIC50
# reply with the number alone; pIC50 is -log10 of concentration in mol/L

Sample records with pIC50:
>>> measured("CCN1CCC(Nc2ncc3c(n2)Nc2ccc(C#N)cc2NC3=O)CC1")
5.64
>>> measured("Cc1cc2c(cc1C)Nc1nc(NC3CCN(C(C)C)CC3)ncc1C(=O)N2")
5.70

Field request: pIC50 | item: CCOc1ccc2c(c1)NC(=O)c1cnc(NC3CCN(C)CC3)nc1N2
6.28

Reported pIC50, compound CCC(C)NC(=O)Nc1ccc2c(c1)NC(=O)c1cnc(N(C)C3CCN(C)CC3)nc1N2 (centres unmarked) : ____
6.64

Tell me the measured pIC50 of CN1CCC(N(C)c2ncc3c(n2)Nc2c(NC(=O)Nc4ccsc4)cccc2NC3=O)CC1 , please.
6.47

----------
# ASSAYED_TARGET: His6-PDK1(Δ1-50) (Homo sapiens)
# Construct: His6 (N)
# ASSAY_METHOD_TEXT: Inhibition of PDK1 (IC50), 384-well flashplate kinase assay
# Assay type: biochemical
# EXPERIMENTAL_SETUP: 4 μM ATP, 400 nM PDKtide, second part of Table 1 (compounds 32-124)
pIC50: −log10 of the molar value.
// label = Fulfilled if pIC50 is not less than 6, otherwise Not fulfilled

>>> qualitative_label("CC(C)N1CCC(Nc2ncc3c(n2)Nc2ccc(C#N)cc2NC3=O)CC1")
"Not fulfilled"
>>> qualitative_label("CCCNC(=O)Nc1ccc2c(c1)Nc1nc(N(C)C3CCN(C)CC3)ncc1C(=O)N2")
"Fulfilled"
>>> qualitative_label("CCOc1ccc2c(c1)NC(=O)c1cnc(NC3CCN(C(C)C)CC3)nc1N2")
"Not fulfilled"
>>> qualitative_label("CCOc1ccc2c(c1)NC(=O)c1cnc(NC3CCN(CC)CC3)nc1N2")
"Not fulfilled"
>>> qualitative_label("CC(C)Cn1cc(-c2ccc3c(c2)NC(=O)c2cnc(N(C)C4CCN(C)CC4)nc2N3)cn1")
"Fulfilled"
>>> qualitative_label("CC(C)N1CCC(Nc2ncc3c(n2)Nc2ccc(C(C)(C)C)cc2NC3=O)CC1")
"Not fulfilled"
>>> qualitative_label("CN1CCC(N(C)c2ncc3c(n2)Nc2ccc(NC(=O)Nc4cccs4)cc2NC3=O)CC1")
"Fulfilled"

Attention now shifts to the item below.
Given the entry CN1CCC(N(C)c2ncc3c(n2)Nc2cc(NC(=O)NC4CCCC4)ccc2NC3=O)CC1 , answer whether its pIC50 meets or surpasses 6.
Fulfilled
